# Tested on: EKVX
# Experimental protocol: Antiproliferative activity against human EKVX cells assessed as cell growth at 10^-5 M after 48 hrs by sulforhodamine B assay
# Assay type: functional
# Measurement conditions: read-out: Activity
growth at 10 µM under 50% gets 1, anything at or over 50% gets 0.

Test smiles	Assigned label
CNC(=O)c1cc(Oc2ccc3nc(NC(=O)c4cc(C(F)(F)F)cc(C(F)(F)F)c4)sc3c2)ccn1	1
CNC(=O)c1cc(Oc2ccc3nc(NC(=O)Nc4ccc(Cl)cc4)sc3c2)ccn1	0
CNC(=O)c1cc(Oc2ccc3nc(NC(=O)Nc4ccc(C(F)(F)F)cc4)sc3c2)ccn1	0
CNC(=O)c1cc(Oc2ccc3nc(NC(=O)Nc4cc(C(F)(F)F)cc(C(F)(F)F)c4)sc3c2)ccn1	1
CNC(=O)c1cc(Oc2ccc3nc(NC(=O)Nc4ccc(F)cc4F)sc3c2)ccn1	0
CNC(=O)c1cc(Oc2ccc3nc(NC(=O)c4ccc5ncccc5c4)sc3c2)ccn1	0
CNC(=O)c1cc(Oc2ccc3nc(NC(=O)c4cccc(F)n4)sc3c2)ccn1	0
CNC(=O)c1cc(Oc2ccc3nc(NC(=O)c4ccc5c(c4)OCCO5)sc3c2)ccn1	0
CNC(=O)c1cc(Oc2ccc3nc(NC(=O)c4ccc(Cl)c(C(F)(F)F)c4)sc3c2)ccn1	0
CNC(=O)c1cc(Oc2ccc3nc(NC(=O)Nc4ccc(Cl)c(C(F)(F)F)c4)sc3c2)ccn1	1
CNC(=O)c1cc(Oc2ccc3nc(NC(=O)Nc4ccc(Cl)c(Cl)c4)sc3c2)ccn1	1

* * *

# Tested on: Malme-3M
# Experimental protocol: Antiproliferative activity against human MALME-3M cells assessed as cell growth at 10^-7 M after 48 hrs by sulforhodamine B assay
# Type: functional
# Measurement conditions: read-out: Activity

Test smiles	Test target	Unit of measure	growth at 0.1 µM
CNC(=O)c1cc(Oc2ccc3nc(NC(=O)Nc4ccc(Cl)c(Cl)c4)sc3c2)ccn1	Malme-3M	%	82
CNC(=O)c1cc(Oc2ccc3nc(NC(=O)c4cc(C(F)(F)F)cc(C(F)(F)F)c4)sc3c2)ccn1	Malme-3M	%	90
CNC(=O)c1cc(Oc2ccc3nc(NC(=O)Nc4ccc(Cl)c(C(F)(F)F)c4)sc3c2)ccn1	Malme-3M	%	98
CNC(=O)c1cc(Oc2ccc3nc(NC(=O)Nc4cc(C(F)(F)F)cc(C(F)(F)F)c4)sc3c2)ccn1	Malme-3M	%	90

* * *

# Experimental protocol: Antiproliferative activity against human SF295 cells assessed as cell growth at 10^-5 M after 48 hrs by sulforhodamine B assay
# Type: functional
# Measurement conditions: SF-295, 48 h, read-out: Activity
Entries annotated with measured growth at 10 µM
Quantity name: growth at 10 µM

Test smiles	Recorded measurement
CNC(=O)c1cc(Oc2ccc3nc(NC(=O)c4ccc5c(c4)OCCO5)sc3c2)ccn1	99.7%
CNC(=O)c1cc(Oc2ccc3nc(NC(=O)Nc4cc(C(F)(F)F)cc(C(F)(F)F)c4)sc3c2)ccn1	-89%
CNC(=O)c1cc(Oc2ccc3nc(NC(=O)Nc4ccc(Cl)cc4)sc3c2)ccn1	66.3%
CNC(=O)c1cc(Oc2ccc3nc(NC(=O)Nc4ccc(Cl)c(Cl)c4)sc3c2)ccn1	-81%
CNC(=O)c1cc(Oc2ccc3nc(NC(=O)Nc4ccc(C(F)(F)F)cc4)sc3c2)ccn1	63.2%
CNC(=O)c1cc(Oc2ccc3nc(NC(=O)c4ccc(Cl)c(C(F)(F)F)c4)sc3c2)ccn1	78.3%
CNC(=O)c1cc(Oc2ccc3nc(NC(=O)c4cccc(F)n4)sc3c2)ccn1	89.1%
CNC(=O)c1cc(Oc2ccc3nc(NC(=O)Nc4ccc(F)cc4F)sc3c2)ccn1	76.7%
CNC(=O)c1cc(Oc2ccc3nc(NC(=O)c4ccc5ncccc5c4)sc3c2)ccn1	86.9%
CNC(=O)c1cc(Oc2ccc3nc(NC(=O)Nc4ccc(Cl)c(C(F)(F)F)c4)sc3c2)ccn1	-68%
CNC(=O)c1cc(Oc2ccc3nc(NC(=O)c4cc(C(F)(F)F)cc(C(F)(F)F)c4)sc3c2)ccn1	1%
